Measured MBC, listed per entry.
tested on: Staphylococcus aureus; test: Bactericidal activity against MLS/methicillin-resistant Staphylococcus aureus PU 32 expressing inducible ermA gene pretreated followed by subculture in absence of compound measured after 24 hrs; type: functional
measurement.type: MBC

| compound | measurement.type | measured.value |
| --- | --- | --- |
| CC[C@H]1OC(=O)[C@@](C)(F)C(=O)[C@H](C)[C@@H](O[C@@H]2O[C@H](C)C[C@H](N(C)C)[C@H]2O)[C@](C)(OC)C[C@@H](C)/C(=N\OCC#Cc2cnc(N)c3ccccc23)[C@H](C)[C@H]2OC(=O)O[C@@]21C | MBC | 32 µg/mL |
| CC[C@H]1OC(=O)[C@@](C)(F)C(=O)[C@H](C)[C@@H](O[C@@H]2O[C@H](C)C[C@H](N(C)C)[C@H]2O)[C@](C)(OC)C[C@@H](C)/C(=N\OC/C=C/c2cncc(O)c2)[C@H](C)[C@H]2OC(=O)O[C@@]21C | MBC | > 2 µg/mL |
| CC[C@H]1OC(=O)[C@@](C)(F)C(=O)[C@H](C)[C@@H](O[C@@H]2O[C@H](C)C[C@H](N(C)C)[C@H]2O)[C@](C)(OC)C[C@@H](C)/C(=N\OCC#Cc2ccc(N)nc2)[C@H](C)[C@H]2OC(=O)O[C@@]21C | MBC | > 8 µg/mL |
| CC[C@H]1OC(=O)[C@@](C)(F)C(=O)[C@H](C)[C@@H](O[C@@H]2O[C@H](C)C[C@H](N(C)C)[C@H]2O)[C@](C)(OC/C=C/c2ccc3c(c2)c(=O)c(C(=O)O)cn3C2CC2)C[C@@H](C)/C(=N\OC)[C@H](C)[C@H]2OC(=O)O[C@@]21C | MBC | 2 µg/mL |
| CC[C@H]1OC(=O)[C@H](C)[C@@H](O[C@H]2C[C@@](C)(OC)[C@@H](O)[C@H](C)O2)[C@H](C)[C@@H](O[C@@H]2O[C@H](C)C[C@H](N(C)C)[C@H]2O)[C@](C)(OC)C[C@@H](C)C(=O)[C@H](C)[C@@H](O)[C@]1(C)O [CLARITHROMYCIN] | MBC | > 256 µg/mL |
| CC[C@H]1OC(=O)[C@@](C)(F)C(=O)[C@H](C)[C@@H](O[C@@H]2O[C@H](C)C[C@H](N(C)C)[C@H]2O)[C@](C)(OC)C[C@@H](C)/C(=N\OCCCc2ccc3c(c2)c(=O)c(C(=O)O)cn3C2CC2)[C@H](C)[C@H]2OC(=O)O[C@@]21C | MBC | 8 µg/mL |
| CC[C@H]1OC(=O)[C@@](C)(F)C(=O)[C@H](C)[C@@H](O[C@@H]2O[C@H](C)C[C@H](N(C)C)[C@H]2O)[C@](C)(OC)C[C@@H](C)/C(=N\OC/C=C/c2ccc3ncc(C(=O)O)cc3c2)[C@H](C)[C@H]2OC(=O)O[C@@]21C | MBC | > 32 µg/mL |
| CC[C@H]1OC(=O)[C@@](C)(F)C(=O)[C@H](C)[C@@H](O[C@@H]2O[C@H](C)C[C@H](N(C)C)[C@H]2O)[C@](C)(OC)C[C@@H](C)/C(=N\OCC#Cc2cncc(C(=O)NC)c2)[C@H](C)[C@H]2OC(=O)O[C@@]21C | MBC | > 4 µg/mL |
